Where do the numbers come from? From patent EP4717706A1.

# TARGET_OR_SYSTEM: VLP2 (virus-like particles, capsid protein particles of AAV serotype 2) (AAV serotype 2 (AAV2)) (UniProt P03135)
# Sequence (P03135 whole entry): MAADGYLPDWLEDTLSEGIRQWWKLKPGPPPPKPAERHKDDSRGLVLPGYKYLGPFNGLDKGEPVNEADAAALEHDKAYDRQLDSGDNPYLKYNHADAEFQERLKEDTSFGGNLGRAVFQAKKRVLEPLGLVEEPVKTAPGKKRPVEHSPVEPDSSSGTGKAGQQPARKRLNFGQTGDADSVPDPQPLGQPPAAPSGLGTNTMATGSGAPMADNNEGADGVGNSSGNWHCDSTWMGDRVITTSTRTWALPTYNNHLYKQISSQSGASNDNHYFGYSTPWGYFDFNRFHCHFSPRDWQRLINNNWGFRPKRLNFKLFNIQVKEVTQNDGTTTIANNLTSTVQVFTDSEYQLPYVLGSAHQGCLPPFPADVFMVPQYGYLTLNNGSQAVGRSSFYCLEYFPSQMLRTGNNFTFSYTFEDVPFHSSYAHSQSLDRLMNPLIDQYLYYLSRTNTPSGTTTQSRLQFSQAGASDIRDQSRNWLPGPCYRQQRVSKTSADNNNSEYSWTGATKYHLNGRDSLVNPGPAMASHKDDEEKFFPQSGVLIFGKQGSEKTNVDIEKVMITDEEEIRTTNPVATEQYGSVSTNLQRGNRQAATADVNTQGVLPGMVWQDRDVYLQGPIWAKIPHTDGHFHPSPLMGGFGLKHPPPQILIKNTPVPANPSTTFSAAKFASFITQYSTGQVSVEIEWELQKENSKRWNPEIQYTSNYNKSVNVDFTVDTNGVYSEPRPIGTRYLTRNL
# RUN_DESCRIPTION: ELISA on immobilised VLP2 (culture supernatant, anti-His detection); A450 after 1:1 0.5 M NaOH, 30 min, 30°C divided by A450 untreated
VALUE_KIND: Remaining activity [%] (%)
I only need the number, in %, no unit after it.

Completed entries (count: 2):
# BINDER, UNIT_OF_MEASURE, REPORTED_MEASUREMENT
rows = [
    ("AAV-binding protein AVR21 (receptor) MGSAGESDQITLPKHEAQLNVYVLLVPPKGEASTYDWQLITHPRDYSGEMEGEHSQILKLSNLTPGLYEYRAVVEGQNAHSEGYVNVTVEPEPRKNRPPIAIVSPQFQEISLPTTSTVIDGSQSTDDDKIVQYHWEELKGPLREEKISEDTAILKLSQLVPGNYTFRLTVVDTDGATDSTTADLTVNKAVDHHHHHH", "%", 26.2),
    ("AVR21 with E384D, V396E (receptor) MGSAGESDQITLPKHEAQLNVYVLLVPPKGEASTYDWQLITHPRDYSGEMEGEHSQILKLSNLTPGLYEYRAVVDGQNAHSEGYVNETVEPEPRKNRPPIAIVSPQFQEISLPTTSTVIDGSQSTDDDKIVQYHWEELKGPLREEKISEDTAILKLSQLVPGNYTFRLTVVDTDGATDSTTADLTVNKAVDHHHHHH", "%", 45.3),
]

Let us examine a further case.
Q) Look at this binder and give its reported Remaining activity [%]. AVR21 with L328P, V394A (receptor) MGSAGESDQITLPKHEAQPNVYVLLVPPKGEASTYDWQLITHPRDYSGEMEGEHSQILKLSNLTPGLYEYRAVVEGQNAHSEGYANVTVEPEPRKNRPPIAIVSPQFQEISLPTTSTVIDGSQSTDDDKIVQYHWEELKGPLREEKISEDTAILKLSQLVPGNYTFRLTVVDTDGATDSTTADLTVNKAVDHHHHHH
A) 40.5
